Data provenance is the supplement of paper PMC11061612.

Bliss excess reference
tested on: J82 (Bladder Carcinoma); experiment: Bliss excess, mean over the matrix (fraction); higher = more synergy;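 note: after 72 h of two-drug dosing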

[
  {
    "compound": "CC(=O)c1c(C)c2cnc(Nc3ccc(N4CCNCC4)cn3)nc2n(C2CCCC2)c1=O [Palbociclib] + CC1(C)CCC(CN2CCN(c3ccc(C(=O)NS(=O)(=O)c4ccc(NCC5CCOCC5)c([N+](=O)[O-])c4)c(Oc4cnc5[nH]ccc5c4)c3)CC2)=C(c2ccc(Cl)cc2)C1 [Venetoclax] (first compound max 10 µM, 7x7, partner max 1 µM)",
    "Bliss excess": -0.0388
  },
  {
    "compound": "COc1cccc2c1C(=O)c1c(O)c3c(c(O)c1C2=O)C[C@@](O)(C(=O)CO)C[C@@H]3O[C@H]1C[C@H](N)[C@H](O)[C@H](C)O1 [Doxorubicin] + Cc1cc2ncnn2cc1Nc1ncc2c(n1)n(C1CCOCC1)c(=O)n2C [AZD7648] (first compound max 1 µM, 7x7, partner max 10 µM)",
    "Bliss excess": 0.0106
  }
]

====

combination Emax reference
tested on: LS-513 (Colorectal Carcinoma); experiment: combination Emax (second highest fraction inhibited in the dose matrix, 72 h); higher = more inhibition; extreme values may be limits of the assay

[
  {
    "molecule": "CN(C)CCCOc1ccc(-c2ccc3ncc4c(c3c2)n(C2CCOCC2)c(=O)n4C)cn1 [AZD0156] + C[C@@H]1COCCN1C2=NC(=NC(=C2)C3(CC3)[S@](=N)(=O)C)C4=C5C=CNC5=NC=C4 [AZD6738] (first compound max 1 µM, 7x7, partner max 10 µM)",
    "combination Emax": 0.822
  },
  {
    "molecule": "CCN(CCO)CCCOc1ccc2c(Nc3cc(CC(=O)Nc4cccc(F)c4)[nH]n3)ncnc2c1 [AZD2811] + C=CCn1c(=O)c2cnc(Nc3ccc(N4CCN(C)CC4)cc3)nc2n1-c1cccc(C(C)(C)O)n1 [AZD1775] (first compound max 1 µM, partner max 1 µM)",
    "combination Emax": 0.703
  },
  {
    "molecule": "CS(=O)(=O)CCNCc1ccc(-c2ccc3ncnc(Nc4ccc(OCc5cccc(F)c5)c(Cl)c4)c3c2)o1 [Lapatinib] + Cn1cnc2c(F)c(Nc3ccc(Br)cc3Cl)c(C(=O)NOCCO)cc21 [Selumetinib] (first compound max 10 µM, 7x7, partner max 10 µM)",
    "combination Emax": 0.949
  },
  {
    "molecule": "NC1(C(=O)N[C@@H](CCO)c2ccc(Cl)cc2)CCN(c2ncnc3[nH]ccc23)CC1 [Capivasertib] + CCN(CCO)CCCOc1ccc2c(Nc3cc(CC(=O)Nc4cccc(F)c4)[nH]n3)ncnc2c1 [AZD2811] (first compound max 10 µM, 7x7, partner max 1 µM)",
    "combination Emax": 0.532
  },
  {
    "molecule": "CCN(CCO)CCCOc1ccc2c(Nc3cc(CC(=O)Nc4cccc(F)c4)[nH]n3)ncnc2c1 [AZD2811] + O=C(c1cc(Cc2n[nH]c(=O)c3ccccc23)ccc1F)N1CCN(C(=O)C2CC2)CC1 [Olaparib] (first compound max 1 µM, 7x7, partner max 10 µM)",
    "combination Emax": 0.404
  },
  {
    "molecule": "Cc1cc2ncnn2cc1Nc1ncc2c(n1)n(C1CCOCC1)c(=O)n2C [AZD7648] + C=CCn1c(=O)c2cnc(Nc3ccc(N4CCN(C)CC4)cc3)nc2n1-c1cccc(C(C)(C)O)n1 [AZD1775] (first compound max 10 µM, partner max 1 µM)",
    "combination Emax": 0.776
  },
  {
    "molecule": "Cc1c2c(nn1C)CSCc1cc(n(C)n1)CSc1cc(c3ccccc3c1)OCCCc1c(C(=O)O)n(C)c3c-2c(Cl)ccc13 [AZD5991] + CCN(CCO)CCCOc1ccc2c(Nc3cc(CC(=O)Nc4cccc(F)c4)[nH]n3)ncnc2c1 [AZD2811] (first compound max 1 µM, 7x7, partner max 1 µM)",
    "combination Emax": 0.623
  }
]
